- system: T1, Bdf1 bromodomain 2 (GST-tagged, WT) (Saccharomyces cerevisiae (strain ATCC …, UniProt P35817))
- T1 chain: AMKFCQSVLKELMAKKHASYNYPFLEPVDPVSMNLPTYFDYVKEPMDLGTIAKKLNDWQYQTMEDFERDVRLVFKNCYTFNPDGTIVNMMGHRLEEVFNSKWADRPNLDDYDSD
- protocol: histone peptide array probed with recombinant GST-bromodomain, signal normalised to myc peptide control
Non-standard residues stand in square brackets, D forms with d. No end group written: not given here. Lys(Me3) = C[N+](C)(C)CCCC[C@H](N)C(=O)O; Arg(Me2s) = CN=C(NC)NCCC[C@H](N)C(=O)O; pS = N[C@@H](COP(=O)(O)O)C(=O)O; Lys(Me) = CNCCCC[C@H](N)C(=O)O
readout: binding score

Use these answered entries as a reference point.
PRKQLATKAA[Arg(Me2s)][Lys(Me)]SAPATGG
0
ARTK(Me3)QTARKSTGGKAPRKQ
0.00148
ARTKQTARKSTGGKAPRKQ (A R T K Q T A R Kme2 S T G G K A P R K Q)
0.00679
PDPAKSAPAPKKG[pS]KKAVT [H2B 1-19]
0
PRKQLATKAAR[Lys(Me3)]SAPATGG
0

a = SGRGKGGKGLGKGGAKRHR (S G Rme2a G Kac G G K G L G K G G A K R H R) [H4 1-19]
b = ARTKQTARKSTGGKAPRKQ (A R T K Q T A R Kac S T G G K A P R K Q)
Quick check, higher binding score between a and b ? Select an item and report its label.
a
(a: 0.0707, b: 0.00364)
